Test system: M14
assay.comment: NCI tumour cell line growth inhibition, 48 h
The source made the active and inactive calls. Rule as the data show it: active = GI50 up to about 1.1 µM and inactive = higher. Square brackets hold non-standard residues; d marks the D form. Peptide text beside a SMILES is read from it. * marks the point of attachment. Phe(4-NO2) = N[CH](Cc1ccc([N+](=O)[O-])cc1)C(=O)O; Cbz = O=C(OCc1ccccc1)*
measured.endpoint: GI50

Q: Check the records and state GI50 for CSC12c3cc(C)n(-c4ccc(I)cc4)c3CC(C)(C)CN1C(=O)C2Oc1ccccc1 (stereo unspecified)
Result: > 100 µM (inactive)

Q: Check the records and state GI50 for CCOC(=O)CCC(NC(=O)OCc1ccccc1)C(=O)NC(CCC(=O)OCC)C(=O)NC(CCC(=O)OCC)C(=O)NC(CCC(=O)OCC)C(=O)NC(CCC(=O)OCC)C(=O)NC(Cc1ccc([N+](=O)[O-])cc1)C(=O)NC(CCC(=O)OCC)C(=O)NC(CCC(=O)OCC)C(=O)NC(CCC(=O)OCC)C(=O)NC(CCC(=O)OCC)C(=O)NC(CCC(=O)OCC)C(=O)OCC (stereo unspecified) (Cbz-E(OEt)E(OEt)E(OEt)E(OEt)E(OEt)[Phe(4-NO2)]E(OEt)E(OEt)E(OEt)E(OEt)E(OEt)-OEt; configuration not given here)
Result: 16.8 µM (inactive)

Q: Check the records and state GI50 for CC(C)(C)OC(=O)N1CCc2[nH][nH]c(=O)c2C1
Result: > 100 µM (inactive)

Q: Check the records and state GI50 for CCN1CCC(O)(C(C(=O)O)c2ccccc2)CC1 (stereo unspecified)
Result: > 100 µM (inactive)

Q: Check the records and state GI50 for NS(=O)(=O)c1ccc2c(c1)OCCOCCOCCOCCO2
Result: > 100 µM (inactive)

Q: Check the records and state GI50 for C[C@@H](c1ccccc1)N1CN(C(=O)OCc2ccccc2)C(CO)C1=O (stereo partly specified)
Result: > 100 µM (inactive)

---

Record form. Attribute: GI50. Fill in for each entry.
Test system: HT-29
assay.comment: NCI tumour cell line growth inhibition, 48 h
Active and inactive are the calls of the source. Rule as the data show it: active = GI50 up to about 1.1 µM and inactive = higher.

Q: Check the records and state GI50 for O=C1C(Cl)C(c2ccccc2)N1n1cnc2ccccc2c1=O (stereo unspecified)
Result: > 100 µM (inactive)

Q: Check the records and state GI50 for CCOc1ccccc1NC(=O)C(=O)Cc1nc2ccccc2s1
Result: > 100 µM (inactive)

Q: Check the records and state GI50 for Cn1c(=O)[nH]c2nccnc2c1=O
Result: > 10 µM (inactive)

Q: Check the records and state GI50 for CCOC(=O)Nc1ccc2c(c1)N(C(=O)CCN(CC)CC)c1ccccc1S2
Result: 17.3 µM (inactive)

Q: Check the records and state GI50 for COCCOCOC(C)(C)[C@H](CCOC(C)=O)O[Si](c1ccccc1)(c1ccccc1)C(C)(C)C
Result: 12.9 µM (inactive)

Q: Check the records and state GI50 for Cc1cn(C2CC(N)C(C(=O)NCC(=O)O)O2)c(=O)[nH]c1=O (stereo unspecified)
Result: > 100 µM (inactive)

---

System: HT-29
assay.comment: NCI tumour cell line growth inhibition, 48 h
The source made the active and inactive calls. Rule as the data show it: active = GI50 up to about 1.1 µM and inactive = higher.
Record form. Attribute: GI50. Fill in for each entry.

Q: Please respond with reported GI50 (system HT-29) for COC(=O)C(C(=O)C(=O)Nc1nnc(S)[nH]1)c1csc(-n2nc(-c3ccccc3)cc2-c2ccccc2)n1 (stereo not given) .
Result: 27.5 µM (inactive)

Q: Please respond with reported GI50 (system HT-29) for O=C(O)c1cccc(/C=C/c2ccccc2)c1 .
Result: > 100 µM (inactive)

Q: Please respond with reported GI50 (system HT-29) for Cc1nnc([C@@]2(C)CC[C@H]3[C@@H](CCC4=CC(=O)CC[C@@]43C)[C@@H]2CC#N)o1 .
Result: > 100 µM (inactive)

Q: Please respond with reported GI50 (system HT-29) for O/N=N/c1ccc(-c2ccccc2)cn1 .
Result: 20.6 µM (inactive)

Q: Please respond with reported GI50 (system HT-29) for COc1cccc(/C=N/n2c(C)n[nH]c2=O)c1 .
Result: > 100 µM (inactive)

Q: Please respond with reported GI50 (system HT-29) for CCOC(=O)C(NC(=O)c1ccccc1)(c1ccc(S(=O)(=O)Nc2onc(C)c2C)cc1)C(F)(F)F (stereo not given) .
Result: > 100 µM (inactive)

Q: Please respond with reported GI50 (system HT-29) for N#C/C(=C1\N=NC(N)=C(c2ccc(Cl)cc2)C1=O)c1ccc(Cl)cc1 .
Result: > 100 µM (inactive)

Q: Please respond with reported GI50 (system HT-29) for CC/C(C)=C1\CCC(CN(C)C)C1=O (stereo not given) .
Result: 23.1 µM (inactive)

Q: Please respond with reported GI50 (system HT-29) for O=c1ccn([C@@H]2O[C@H](CO)[C@@H](O)[C@H]2F)c(=O)[nH]1 .
Result: > 100 µM (inactive)

Q: Please respond with reported GI50 (system HT-29) for CCCC[C@H]1CCN2C[C@@H](O)[C@@H](O)[C@H]2[C@@H]1O .
Result: > 100 µM (inactive)

---

System: NCI-H226
assay.comment: NCI tumour cell line growth inhibition, 48 h
The source made the active and inactive calls. Cut-off read from the data, not from the text of the source: active = GI50 up to about 1.1 µM and inactive = higher. Residues, ends and D or L forms follow the SMILES beside them. *: point of attachment. Boc = CC(C)(C)OC(=O)*
Choose one outcome from this list and give only that: active, inactive

Q: Could you please tell me the result logged for COC(=O)CC1(O)C=CC(=O)C=C1 [JACARANONE] in this assay?
Result: inactive

Q: Could you please tell me the result logged for CCN(CC)CC[n+]1ccc2c(C)c3[nH]c4ccc(O)cc4c3c(C)c2c1 in this assay?
Result: active

Q: Could you please tell me the result logged for COC(=O)CCC(C)[C@H]1CCC2C3C(C[C@H](OC(C)=O)[C@@]21C)[C@@]1(C)CCC2(C[C@H]1C[C@H]3OC(C)=O)OOC1(CCCCCCC1)OO2 (stereo not given in full) in this assay?
Result: inactive

Q: Could you please tell me the result logged for [N-]=[N+]=CC(=O)OC1CCc2ccccc21 (stereo not given) in this assay?
Result: inactive

Q: Could you please tell me the result logged for CC(C)=CCc1[nH]c2ccccc2c1C1=C(O)C(=O)C(c2c(CC=C(C)C)[nH]c3ccccc23)=C(O)C1=O in this assay?
Result: inactive

Q: Could you please tell me the result logged for CC(C)(C)OC(=O)N1CCc2[nH][nH]c(=O)c2C1 in this assay?
Result: inactive

Q: Could you please tell me the result logged for CCCCCCCCCCCCCCCCCCN(C)C(COC)COP(=O)([O-])OCC[N+](C)(C)C (stereo not given) in this assay?
Result: inactive

Q: Could you please tell me the result logged for O=C(O)COc1cccc2ccccc(=O)c12 in this assay?
Result: inactive

Q: Could you please tell me the result logged for COc1cc(OC)c(OC)cc1/C=C/c1ccccn1 in this assay?
Result: inactive

Q: Could you please tell me the result logged for CCCCCCCCCCCCCCNCC(OCC)OCC in this assay?
Result: inactive

Q: Could you please tell me the result logged for CC(=O)OC1CC2(C)C(OC(C)=O)CC1C2(C)C (stereo not given) in this assay?
Result: inactive

Q: Could you please tell me the result logged for COCCOCOC(C)(C)[C@H](CCOC(C)=O)O[Si](c1ccccc1)(c1ccccc1)C(C)(C)C in this assay?
Result: inactive

Q: Could you please tell me the result logged for O=C(CC1(O)C(=O)Nc2ccc(Br)cc21)c1ccc(Cl)cc1 (stereo not given) in this assay?
Result: inactive

Q: Could you please tell me the result logged for Cc1nc2c(n1CCO)C(=O)c1ccccc1C2=O in this assay?
Result: inactive

Q: Could you please tell me the result logged for COc1ccc(/C=C2\CCC(Cc3ccccc3)(CN(C)C)C2=O)cc1 (stereo not given) in this assay?
Result: inactive

Q: Could you please tell me the result logged for CN(C)CCCNC(=O)CNC(=O)c1cc(NC(=O)c2cc(NC(=O)c3cc(NC(=O)CCNC(=O)c4cc(NC(=O)c5cc(NC(=O)c6nccn6C)cn5C)cn4C)cn3C)cn2C)cn1C in this assay?
Result: inactive

Q: Could you please tell me the result logged for O=S(=O)(O)n1ccnc1 in this assay?
Result: inactive

Q: Could you please tell me the result logged for CCOC(=O)C1=C(C)CC2C(=O)OC(=O)C2C1(C)C (stereo not given) in this assay?
Result: inactive

Q: Could you please tell me the result logged for COc1ccc(NC(=O)CC(=O)N2N=C(N3c4ccccc4Sc4ccccc43)CC2c2ccccc2)cc1 (stereo not given) in this assay?
Result: inactive

Q: Could you please tell me the result logged for CC(C)(C)OC(=O)NC(Cc1ccc(O)cc1)C(=O)NC(CCCCN)C(=O)O (stereo not drawn) (Boc-Tyr-Lys-OH; configuration not given here) in this assay?
Result: inactive

---

System: A549
assay.comment: NCI tumour cell line growth inhibition, 48 h
Active and inactive are the calls of the source. Rule as the data show it: active = GI50 up to about 1.1 µM and inactive = higher.
Record form. Attribute: GI50. Fill in for each entry.

Q: Check the records and state GI50 for NC(=O)Cn1c(=O)[nH]c(=O)c2[nH]cnc21
Result: > 100 µM (inactive)

Q: Check the records and state GI50 for COc1ccc(OC2OC(CO)C(O)C(O)C2O)cc1 (stereo not given)
Result: > 100 µM (inactive)

Q: Check the records and state GI50 for COc1ccc(CN2C(=O)[C@@H]3Cc4c(OC)c(C)c(OC)c(OC)c4[C@H](/C2=C\c2cc(OC)c(OC)c(C)c2OC)N3C(=O)OC(C)C)cc1
Result: 58.9 µM (inactive)

Q: Check the records and state GI50 for CC(=O)Nc1ccc(-c2cc(C(=O)O)c3cc4ccccc4cc3n2)cc1
Result: > 100 µM (inactive)

Q: Check the records and state GI50 for CC(=O)O[C@H]1[C@@H]2[C@@H]3[C@@H](C[C@H]1C)[C@@H](C)CO[C@@]1(C)CC/C=C(/C)C[C@@H]2O[C@@H]31
Result: > 100 µM (inactive)

Q: Check the records and state GI50 for CCC/N=C/c1cc(Cc2ccc(O)c(/C=N/CCC)c2)ccc1O
Result: 17 µM (inactive)

Q: Check the records and state GI50 for CC(=O)OC1CC2(C)C(OC(C)=O)CC1C2(C)C (stereo not given)
Result: > 100 µM (inactive)

Q: Check the records and state GI50 for Cc1nc2ccccc2c(=O)n1NC(=O)c1ccccc1O
Result: > 100 µM (inactive)

Q: Check the records and state GI50 for Cn1c(=O)[nH]c2nccnc2c1=O
Result: > 10 µM (inactive)

Q: Check the records and state GI50 for O=[N+]([O-])c1ccc(NC(=S)Nc2ccccn2)cc1
Result: 19.1 µM (inactive)

The values you see were collected from ChEMBL document CHEMBL1201862.
